- SYSTEM: NaV 1.8 channel (Homo sapiens, UniProt Q9Y5Y9)
- Sequence (Q9Y5Y9 whole entry): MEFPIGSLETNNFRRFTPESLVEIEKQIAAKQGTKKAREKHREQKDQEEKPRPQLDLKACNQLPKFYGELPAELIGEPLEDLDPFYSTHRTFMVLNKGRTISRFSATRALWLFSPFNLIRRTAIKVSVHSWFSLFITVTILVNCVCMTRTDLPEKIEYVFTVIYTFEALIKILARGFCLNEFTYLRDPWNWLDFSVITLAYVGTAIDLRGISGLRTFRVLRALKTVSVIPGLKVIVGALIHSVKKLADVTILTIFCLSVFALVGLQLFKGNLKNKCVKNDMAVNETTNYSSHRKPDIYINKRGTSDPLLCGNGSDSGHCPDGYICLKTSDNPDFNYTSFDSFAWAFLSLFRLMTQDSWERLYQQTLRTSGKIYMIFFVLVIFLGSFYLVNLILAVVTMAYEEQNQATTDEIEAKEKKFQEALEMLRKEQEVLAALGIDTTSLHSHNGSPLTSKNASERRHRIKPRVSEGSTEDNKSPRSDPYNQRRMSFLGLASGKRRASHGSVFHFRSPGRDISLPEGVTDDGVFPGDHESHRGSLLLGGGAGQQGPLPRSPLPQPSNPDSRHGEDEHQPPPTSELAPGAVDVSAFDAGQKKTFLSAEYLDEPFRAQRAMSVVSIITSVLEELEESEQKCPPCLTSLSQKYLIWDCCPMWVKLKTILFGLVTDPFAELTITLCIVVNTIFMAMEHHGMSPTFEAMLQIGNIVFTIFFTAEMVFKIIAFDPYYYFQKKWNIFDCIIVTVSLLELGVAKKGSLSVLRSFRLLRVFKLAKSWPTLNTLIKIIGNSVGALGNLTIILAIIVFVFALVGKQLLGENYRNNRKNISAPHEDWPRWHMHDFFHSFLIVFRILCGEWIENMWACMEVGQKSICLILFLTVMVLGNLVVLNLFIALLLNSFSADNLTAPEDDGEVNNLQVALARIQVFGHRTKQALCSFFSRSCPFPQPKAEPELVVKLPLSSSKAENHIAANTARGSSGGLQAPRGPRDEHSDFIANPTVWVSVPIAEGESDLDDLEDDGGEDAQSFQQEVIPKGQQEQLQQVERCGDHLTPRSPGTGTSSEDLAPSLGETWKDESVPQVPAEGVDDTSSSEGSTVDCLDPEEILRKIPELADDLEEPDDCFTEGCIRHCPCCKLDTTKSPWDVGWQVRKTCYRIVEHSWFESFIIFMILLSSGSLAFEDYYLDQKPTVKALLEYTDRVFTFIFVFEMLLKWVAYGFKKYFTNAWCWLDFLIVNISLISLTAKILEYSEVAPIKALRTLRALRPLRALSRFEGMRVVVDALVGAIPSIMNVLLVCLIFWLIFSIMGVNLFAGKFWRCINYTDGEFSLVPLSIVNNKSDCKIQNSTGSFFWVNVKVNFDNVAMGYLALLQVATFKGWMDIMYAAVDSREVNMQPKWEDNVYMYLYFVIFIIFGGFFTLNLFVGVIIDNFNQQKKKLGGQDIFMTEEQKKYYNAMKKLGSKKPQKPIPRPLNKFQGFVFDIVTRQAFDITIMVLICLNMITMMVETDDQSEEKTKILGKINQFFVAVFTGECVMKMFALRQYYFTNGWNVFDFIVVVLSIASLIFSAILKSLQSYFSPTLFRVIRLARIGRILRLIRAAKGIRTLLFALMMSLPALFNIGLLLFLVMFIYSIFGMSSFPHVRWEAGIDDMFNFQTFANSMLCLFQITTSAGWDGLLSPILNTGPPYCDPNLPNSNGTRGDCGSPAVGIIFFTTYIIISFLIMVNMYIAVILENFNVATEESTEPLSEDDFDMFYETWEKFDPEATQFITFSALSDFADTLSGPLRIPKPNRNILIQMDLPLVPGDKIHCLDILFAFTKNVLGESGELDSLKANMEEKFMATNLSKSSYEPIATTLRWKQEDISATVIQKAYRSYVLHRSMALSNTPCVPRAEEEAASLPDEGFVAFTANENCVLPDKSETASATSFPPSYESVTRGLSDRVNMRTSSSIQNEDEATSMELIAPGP
- TEST: Activity against NaV 1.8 channel (optical membrane potential assay)
Quick list: IC50 per entry.

Answered examples (4):
Cc1ccc2c(N3CCN(C(=O)CCN4CCCCC4)CC3)nc(-c3ccccc3O)nc2c1 [Example 175] = > 10 µM
O=C(N[C@@H]1CCN(c2nc(-c3ccccc3O)nc3ccc(F)cc23)C1)O[C@@H]1CCOC1 [Example 337] = 2 to 10 µM
Cc1ccc2c(N3CCN(C(=O)[C@H](O)CC(C)C)CC3)nc(-c3cc(F)ccc3O)nc2c1 [Example 136] = > 10 µM
Cc1ccc2c(N3CC[C@@H](NC(=O)c4ccncc4)C3)nc(-c3c(O)cccc3F)nc2c1 [Example 350] = > 10 µM

// switching to the query molecule
Any idea what IC50 came out for Cc1ccc2c(N3CCN(C(=O)O[C@H]4CCOC4)CC3)nc(-c3ccccc3O)nc2c1 [Example 183] on NaV 1.8 channel (Homo sapiens, UniProt Q9Y5Y9)?
2 to 10 µM
